Data provenance: patent US10093630B2

Target: ABHD6 (Mus musculus, UniProt Q8R2Y0)
Construct: Proteomes (mouse brain membrane fraction or cell lysates); from tissue; host or cells: mouse brain membrane fraction (or cell lysates, not specified)
Sequence (Q8R2Y0 whole entry): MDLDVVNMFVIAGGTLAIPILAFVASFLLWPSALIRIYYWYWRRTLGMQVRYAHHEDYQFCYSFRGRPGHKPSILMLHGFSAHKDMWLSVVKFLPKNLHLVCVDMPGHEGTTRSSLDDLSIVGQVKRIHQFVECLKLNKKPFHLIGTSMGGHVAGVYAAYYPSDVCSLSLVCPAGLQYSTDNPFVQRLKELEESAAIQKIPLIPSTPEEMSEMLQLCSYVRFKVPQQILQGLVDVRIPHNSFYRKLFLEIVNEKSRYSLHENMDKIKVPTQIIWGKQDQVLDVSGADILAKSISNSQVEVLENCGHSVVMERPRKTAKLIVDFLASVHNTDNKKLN
Assay: In vitro competitive activity-based protein profiling (gel-based, FP-Rh or HT-01 probe)
Type: biochemical
Conditions: 10 μM inhibitor; read-out: % Inhibition at 10 μM, C = ABHD6
Provide the recorded inhibition at 10 µM for the entries that follow.

For Cc1cnn(C(=O)N2CCN(S(C)(=O)=O)CC2)c1 [Example 162] , what is its reported inhibition at 10 µM?
25 to 75%

Subsequent entry: O=C(c1cnn(C(=O)N2CCN(Cc3ccncn3)CC2)c1)N1CCCCC1 [Example 73]
> 75%

Subsequent entry: O=C(c1cnn(C(=O)N2CCN(C(c3ccc(Cl)cc3)c3ccc(Cl)cc3)CC2)c1)N1CCCCC1 [Example 66]
> 75%

Subsequent entry: O=C(c1ccccc1)N1CCCN(C(=O)n2cc(Cl)cn2)CC1 [Example 192]
> 75%

Subsequent entry: O=C(N1CCN(c2ccc(Cl)cc2)CC1)n1cc(C(F)(F)F)cn1 [Example 229]
> 75%

Subsequent entry: N#Cc1cnn(C(=O)N2CCCN(C(=O)c3ccccc3)CC2)c1 [Example 180]
> 75%

Subsequent entry: Cc1cnn(C(=O)N(C)CCN(C)C(=O)OC(C)(C)C)c1 [Example 29]
> 75%

Subsequent entry: COc1ccccc1-c1ccc(-c2cnn(C(=O)N3CCCC3)c2)cc1 [Example 107]
> 75%

Subsequent entry: CN(Cc1cccc(-c2ccncc2)c1)C(=O)n1cc(C(F)(F)F)cn1 [Example 222]
> 75%

Subsequent entry: Cc1cc(N2CCN(C(=O)n3cc(Cl)cn3)CC2)c2ccccc2n1 [Example 208]
> 75%

Subsequent entry: CC(=O)N1CCCN(C(=O)n2cc(Cl)cn2)CC1 [Example 188]
25 to 75%

Subsequent entry: O=C(c1cnn(C(=O)N2CCN(Cc3ccc4c(c3)OCO4)CC2)c1)N1CCC1 [Example 86]
> 75%

Subsequent entry: CCN(Cc1ccccc1OC)C(=O)n1cc(Cl)cn1 [Example 127]
> 75%

Subsequent entry: O=C(N1CCN(c2ccc(N3CCOCC3)cc2)CC1)n1cc(C(F)(F)F)cn1 [Example 238]
> 75%

Subsequent entry: Cc1ccccc1-c1cnn(C(=O)N2CCN(C(c3ccc(Cl)cc3)c3ccc(Cl)cc3)CC2)c1 [Example 122]
> 75%

Subsequent entry: O=C(N1CCN(Cc2ccc(C(F)(F)F)cc2)CC1)n1cc(Cl)cn1 [Example 213]
> 75%

Subsequent entry: O=C(N1CCN(Cc2ccncn2)CC1)n1cc(-c2ccccc2)cn1 [Example 62]
> 75%

Subsequent entry: O=C(N1CCN(C(c2ccc(Cl)cc2)c2ccc(Cl)cc2)CC1)n1cc(F)cn1 [Example 121]
> 75%

====

Target: PLA2G7 (Mus musculus, UniProt Q60963)
Construct: Proteomes (mouse brain membrane fraction or cell lysates); from tissue; host or cells: mouse brain membrane fraction (or cell lysates, not specified)
Sequence (Q60963 22-440): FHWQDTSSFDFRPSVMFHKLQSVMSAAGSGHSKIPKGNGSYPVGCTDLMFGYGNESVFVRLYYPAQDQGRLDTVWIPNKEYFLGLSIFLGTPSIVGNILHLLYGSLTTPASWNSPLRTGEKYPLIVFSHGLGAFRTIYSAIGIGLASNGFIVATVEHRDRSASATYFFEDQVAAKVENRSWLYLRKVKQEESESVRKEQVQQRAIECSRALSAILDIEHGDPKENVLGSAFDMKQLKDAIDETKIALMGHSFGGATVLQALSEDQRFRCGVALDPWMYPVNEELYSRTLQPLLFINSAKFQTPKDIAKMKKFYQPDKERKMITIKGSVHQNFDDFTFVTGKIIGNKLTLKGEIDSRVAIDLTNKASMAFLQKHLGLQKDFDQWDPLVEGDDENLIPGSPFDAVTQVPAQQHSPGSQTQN
Assay: In vitro competitive activity-based protein profiling (gel-based, FP-Rh or HT-01 probe)
Assay type: biochemical
Conditions: 1 μM inhibitor; gel-based competitive ABPP; read-out: % Inhibition at 1 μM, D = PLA2G7
Value Type: inhibition at 1 µM

For O=C(O)c1cnn(C(=O)N2CCN(Cc3ccc(Cl)cc3)CC2)c1 [Example 288] , what is its reported inhibition at 1 µM?
< 25%

Subsequent entry: CCN(Cc1cccc(Cl)c1)C(=O)n1cc(C)cn1 [Example 245]
< 25%

Subsequent entry: CCN(Cc1cccc(C)c1)C(=O)n1cc(C#N)cn1 [Example 246]
< 25%

Subsequent entry: O=C(N1CCN(Cc2ccccc2Cl)CC1)n1cc(C(F)(F)F)cn1 [Example 275]
> 75%

Subsequent entry: CCN(Cc1cccc(C)c1)C(=O)n1cc(C)cn1 [Example 248]
< 25%

Subsequent entry: Cc1cnn(C(=O)N2CCN(Cc3cccc(Oc4ccccc4)c3)CC2)c1 [Example 294]
< 25%

Subsequent entry: O=C(N1CCN(Cc2cccc(F)c2)CC1)n1cc(C(F)(F)F)cn1 [Example 269]
> 75%

Subsequent entry: O=C(c1cnn(C(=O)N2CCN(Cc3ccc(-c4ccccc4)cc3Cl)CC2)c1)N1CCCC1 [Example 289]
> 75%

Subsequent entry: O=C(N1CCN(Cc2ccccc2F)CC1)n1cc(C(F)(F)F)cn1 [Example 276]
> 75%
